Where do these numbers come from? They come from the supplement of paper PMC10883282.

Kindly state standardised AUC for each of the entries shown.
Tested on: G401
Assay: standardised AUC of viability dose-response curve (72 h) (fraction (0-1)); higher = less growth inhibition (more resistant)

molecule: CNC(=O)c1ccccc1Sc1ccc2c(/C=C/c3ccccn3)n[nH]c2c1
standardised AUC: 0.857
//
molecule: CC(C)NC[C@@H](C(=O)N1CCN(c2ncnc3c2[C@H](C)C[C@H]3O)CC1)c1ccc(Cl)cc1
standardised AUC: 0.836

Please look at the items below and tell me standardised AUC for each one, in order.
1. CC#CC(=O)N1CCC[C@H]1c1nc(-c2ccc(C(=O)Nc3ccccn3)cc2)c2c(N)nccn12
2. COCCNc1cc(NC(=O)N2CCCc3cc(CN4CCN(C)CC4=O)c(C=O)nc32)ncc1C#N

### Response
1. 0.992
2. 0.979

Please look at the items below and tell me standardised AUC for each one, in order.
1. N#CCNC(=O)c1ccc(-c2ccnc(Nc3ccc(N4CCOCC4)cc3)n2)cc1
2. O=C(Nc1ccc(OC(F)(F)Cl)cc1)c1cnc(N2CC[C@@H](O)C2)c(-c2cc[nH]n2)c1
3. Cc1[nH]c(/C=C2\C(=O)Nc3ccc(F)cc32)c(C)c1C(=O)NCCN1CCCC1
4. CN1CC[C@@H](NC(=O)Nc2ccc(C#N)cc2)C[C@@H]1c1nc2ccccc2[nH]1
5. CC(C)(C)c1nc(-c2cccc(NS(=O)(=O)c3c(F)cccc3F)c2F)c(-c2ccnc(N)n2)s1
6. CCN(CC)CCNC(=O)c1c(C)[nH]c(/C=C2\C(=O)Nc3ccc(F)cc32)c1C

### Response
1. 0.889
2. 0.989
3. 0.923
4. 0.976
5. 0.921
6. 0.907

Please look at the items below and tell me standardised AUC for each one, in order.
1. COC(=O)[C@@]1(O)C[C@H]2O[C@]1(C)n1c3ccccc3c3c4c(c5c6ccccc6n2c5c31)C(=O)NC4 [K-252A]
2. CC1(COc2ccc3c(c2)ncn3-c2ccc3cccc(N4CCC(N)CC4)c3n2)COC1
3. CCN1C(=O)N(c2c(F)c(OC)cc(OC)c2F)Cc2cnc3[nH]c(CN4CCOCC4)cc3c21

### Response
0.745
0.956
0.696

Please look at the items below and tell me standardised AUC for each one, in order.
1. COc1cc(Nc2ncc(F)c(Nc3ccc4c(n3)N(COP(=O)(O)O)C(=O)C(C)(C)O4)n2)cc(OC)c1OC
2. CC(C)Oc1ccc(-c2nn([C@@H](C)c3oc4ccc(F)cc4c(=O)c3-c3cccc(F)c3)c3ncnc(N)c23)cc1F

### Response
1. 0.842
2. 0.983
